target: recombinant human IL-6 (human, UniProt P05231 30-212); assay: SPR, IL-6 on CM5 chip, Fab lysate, 25 C
Sequence (P05231 30-212 limits assumed): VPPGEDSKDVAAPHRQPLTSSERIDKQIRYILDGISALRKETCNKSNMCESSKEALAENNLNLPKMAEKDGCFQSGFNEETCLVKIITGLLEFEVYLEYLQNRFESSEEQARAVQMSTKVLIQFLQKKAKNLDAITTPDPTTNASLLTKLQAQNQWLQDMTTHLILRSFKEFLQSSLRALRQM
Below is a list of entries, each paired with its recorded koff value.
Note: unit s⁻¹ is implicit; provide only the numeric part.

Illustrative cases are given below, each with its answer.
anti-IL-6 Fab, heavy chain D62Q (Fab, V domains shown, see m39) VH: EVQLVESGGGLVQPGGSLRLSCAASGFTFSPFAMSWVRQAPGKGLEWVAKISPGGSWTYYSQTVTGRFTFSLDTSKSTAYLQMNSLRAEDTAVYYCARQLWGYYALDIWGQGTLVTVSS VL: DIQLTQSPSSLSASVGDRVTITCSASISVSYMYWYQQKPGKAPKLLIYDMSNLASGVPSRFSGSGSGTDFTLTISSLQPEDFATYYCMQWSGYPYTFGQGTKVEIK = 0.00434
anti-IL-6 Fab, light chain S30G (Fab, V domains shown, see m39) VH: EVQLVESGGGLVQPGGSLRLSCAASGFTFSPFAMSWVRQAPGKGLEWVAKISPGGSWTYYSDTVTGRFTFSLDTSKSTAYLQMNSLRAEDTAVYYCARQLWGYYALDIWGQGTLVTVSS VL: DIQLTQSPSSLSASVGDRVTITCSASISVGYMYWYQQKPGKAPKLLIYDMSNLASGVPSRFSGSGSGTDFTLTISSLQPEDFATYYCMQWSGYPYTFGQGTKVEIK = 0.00677

With those in mind, consider the next binder.
Consider the binder anti-IL-6 Fab, heavy chain S56H (Fab, V domains shown, see m39) VH: EVQLVESGGGLVQPGGSLRLSCAASGFTFSPFAMSWVRQAPGKGLEWVAKISPGGHWTYYSDTVTGRFTFSLDTSKSTAYLQMNSLRAEDTAVYYCARQLWGYYALDIWGQGTLVTVSS VL: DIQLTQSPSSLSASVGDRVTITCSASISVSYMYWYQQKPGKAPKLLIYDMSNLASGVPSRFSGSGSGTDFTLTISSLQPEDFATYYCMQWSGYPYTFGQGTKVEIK and give its measured koff. 0.0409
